Below: a set of entries, each annotated with reported furin cleavage Z-score.
tgt: furin, P09958
Sequence (P09958 whole entry): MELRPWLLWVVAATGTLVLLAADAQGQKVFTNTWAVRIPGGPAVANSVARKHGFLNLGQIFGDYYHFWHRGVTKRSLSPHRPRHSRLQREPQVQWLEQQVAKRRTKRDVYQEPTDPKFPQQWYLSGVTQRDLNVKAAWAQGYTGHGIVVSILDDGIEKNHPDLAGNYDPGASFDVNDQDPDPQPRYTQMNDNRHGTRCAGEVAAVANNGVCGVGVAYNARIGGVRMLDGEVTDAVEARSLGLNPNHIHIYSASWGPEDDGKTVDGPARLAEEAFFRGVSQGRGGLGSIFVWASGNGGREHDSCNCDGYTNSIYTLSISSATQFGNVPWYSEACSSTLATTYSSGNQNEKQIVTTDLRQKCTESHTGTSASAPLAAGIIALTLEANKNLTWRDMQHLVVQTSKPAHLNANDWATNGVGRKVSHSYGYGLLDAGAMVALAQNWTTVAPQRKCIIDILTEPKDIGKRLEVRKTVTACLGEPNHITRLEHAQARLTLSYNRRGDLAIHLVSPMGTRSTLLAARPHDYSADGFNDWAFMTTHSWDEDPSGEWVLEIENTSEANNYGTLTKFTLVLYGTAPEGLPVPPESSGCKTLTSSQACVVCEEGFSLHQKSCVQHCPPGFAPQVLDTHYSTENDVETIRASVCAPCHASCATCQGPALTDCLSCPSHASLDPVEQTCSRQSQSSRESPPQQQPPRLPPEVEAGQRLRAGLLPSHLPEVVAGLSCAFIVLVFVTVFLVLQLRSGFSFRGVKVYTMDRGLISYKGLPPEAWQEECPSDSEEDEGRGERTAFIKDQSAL
method.summary: furin cleavage Z-score vs untreated control; higher = more cleavage, active = 3.5 or more, inactive = 1 or less, 8 variable residues between constant flanks;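 note: purified furin at 1:10 enzyme:substrate in 50 mM HEPES pH 7.5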
conditions: 15 min
This is one part of the list. The true hit rate is not given.
measured.property: furin cleavage Z-score

INSERT INTO measurements (seq, endpoint_result) VALUES
  ('CAMEMEECSQAGNASASA [HC1786]', '-0.743 (inactive)'),
  ('CAKIMSGEVPAGNASASA [HC1094]', '-1.21 (inactive)'),
  ('CAEECSQHLPAGNASASA [HC1015]', '0.0813 (inactive)'),
  ('CAGEECSQHLAGNASASA [HC1676]', 1.42),
  ('CASTPRSKRLAGNASASA [FS-1091]', '6.77 (active)'),
  ('CARRRRSFRRAGNASASA [FS-376]', '6.31 (active)'),
  ('CARRRRCLNGAGNASASA [FS-1783]', '5.63 (active)'),
  ('CALASHPKRAAGNASASA [FS-1355]', '0.46 (inactive)'),
  ('CAMGSSYGFQAGNASASA [HC1464]', '-0.28 (inactive)'),
  ('CARPAREVDRAGNASASA [FS-2356]', '5.29 (active)'),
  ('CAREERSWFRAGNASASA [FS-2910]', '-0.354 (inactive)'),
  ('CARKARALGTAGNASASA [FS-2034]', '9.85 (active)'),
  ('CARRRRSLPEAGNASASA [FS-2796]', '10.5 (active)'),
  ('CAEPSRLVREAGNASASA [FS-1452]', '5.86 (active)'),
  ('CAESVVCCSMAGNASASA [HC2137]', '-0.242 (inactive)'),
  ('CAVVCDSMSYAGNASASA [HC92]', '0.971 (inactive)'),
  ('CATTYRSKRLAGNASASA [FS-886]', '10.5 (active)'),
  ('CADSRGSLLSAGNASASA [HC734]', '-0.939 (inactive)'),
  ('CATTQCSGSWAGNASASA [HC1882]', '-1.36 (inactive)'),
  ('CACVCCSMSYAGNASASA [HC2000]', '-0.374 (inactive)'),
  ('CASTPCSARLAGNASASA [HC2553]', '0.581 (inactive)'),
  ('CAHTWREKRLAGNASASA [FS-31]', '0.418 (inactive)'),
  ('CARHARFGKKAGNASASA [FS-2210]', '-1.52 (inactive)'),
  ('CARPWRDLPEAGNASASA [FS-3031]', '0.355 (inactive)'),
  ('CAVLEESKRLAGNASASA [FS-1429]', '-1.55 (inactive)'),
  ('CARFRRQDIRAGNASASA [FS-2664]', 2.56),
  ('CACVTQTVDFAGNASASA [HC889]', '-1.73 (inactive)'),
  ('CAMKYEIASEAGNASASA [NG5]', '-1.67 (inactive)'),
  ('CAAAILRRHVAGNASASA [HC1110]', 1.42),
  ('CARCRRQFQEAGNASASA [FS-1887]', 1.16);
